Values of IC50 for human DGAT1 (Homo sapiens), collected from a number of published sources:
endpoint name: IC50 (nM)

Reference set (5 entries):
O=C(O)C[C@H]1CC[C@H](OC2CCN(c3ccc(-c4nc5ccccc5[nH]4)cn3)CC2)CC1: 19
O=C(CCCc1ccccc1)Nc1ccc(N2CCN(C(=O)Nc3c(Cl)cc(CO)cc3Cl)CC2)cc1: 1.95
O=C(O)CC1(CC(F)(F)F)CCc2cc(-c3cnc(NC(=O)NC4CCCCC4)cn3)ccc2C1=O (single isomer, unassigned): 2.7
CCCn1cc(/C=C/C(=O)N(NC(=O)c2cccc(F)c2)C(C)C)c2ccccc21: 3600
CC(C)N(NC(=O)c1ccc(F)cc1)C(=O)/C=C/c1cn(C(=O)OC(C)(C)C)c2ccccc12: 2100

A = O=C(CCCc1ccccc1)Nc1ccc(N2CCN(C(=O)C(O)c3cccc(F)c3F)CC2)cc1 (stereo not shown)
B = Cc1cc(C)c(NC(=O)N2CCC(c3ccc(NC(=O)c4ccccc4-c4ccc(C(F)(F)F)cc4)cc3)CC2)c(C)c1
C = O=C(Nc1ccc(N2CCN(C(=O)Nc3c(F)cc(Br)cc3F)CC2)cc1)c1ccccc1-c1ccc(C(F)(F)F)cc1
D = CCOc1ccc(C(=O)NCCNC(=O)c2ccc(O[C@H]3CC[C@@H](C(=O)O)CC3)cc2)cc1
E = CC(C)C(CC(=O)Nc1ccc(C2CCN(C(=O)Nc3c(Cl)cccc3Cl)CC2)cc1)NC(=O)OC(C)(C)C (stereo not shown)
Query: Rank items: key IC50, increasing. API: response body holds the labels in the requested order.
Reply: D, E, A, B, C
(D: 21 nM, E: 58.9 nM, A: 129 nM, B: 269 nM, C: 2630 nM)
